Origin of values: patent US20050202450A1

biological target: T1, VHL protein, HA-tagged, in vitro translated from p(HA)VHL (UniProt P40337 1-213); assay: in vitro co-immunoprecipitation with anti-VHL, 35S-labeled Gal4 fusion
T1 construct: not shown: HA tag
T1 sequence (P40337 whole entry, the tested form may be a part): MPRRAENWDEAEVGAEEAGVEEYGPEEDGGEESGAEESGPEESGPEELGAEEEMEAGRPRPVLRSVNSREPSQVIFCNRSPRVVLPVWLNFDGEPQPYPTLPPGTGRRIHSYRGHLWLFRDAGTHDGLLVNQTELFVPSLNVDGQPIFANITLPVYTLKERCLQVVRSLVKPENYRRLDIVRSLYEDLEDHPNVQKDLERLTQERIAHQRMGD
Attribute measured: binding result

INSERT INTO results (binder, reading) VALUES
  ('Gal4-HIF1α(574-603) (other) MKLLSSIEQACDICRLKKLKCSKEKPKCAKCLKNNWECRYSPKTKRSPLTRAHLTEVESRLERLEQLFLLIFPREDLDMILKMDSLQDIKALLTGLFVQDNVNKDAVTDRLASVETDMPLTLRQHRISATSSSEESSNKGQRQLTVSLRSFDQLSPLESSSASPESASPQSTVTVFQ', 'no binding'),
  ('Gal4-HIF1α(401-603) with Pro-564 mutated to alanine (other, not shown: large carriers; small tags and cut ends) APAAGDTIISLDFGSNDTETDDQQLEEVPLYNDVMLPSPNEKLQNINLAMSPLPTAETPKPLRSSADPALNQEVALKLEPNPESLELSFTMPQIQDQTPSPSDGSTRQSSPEPNSPSEYCFYVDSDMVNEFKLELVEKLFAEDTEAKNPFSTQDTDLDLEMLAAYIPMDDDFQLRSFDQLSPLESSSASPESASPQSTVTVFQ', 'no binding');
